# system.under.test: plasma purified human complement protein C3 (human) (UniProt P01024)
# Sequence (P01024 23-667, chain 1 of 2): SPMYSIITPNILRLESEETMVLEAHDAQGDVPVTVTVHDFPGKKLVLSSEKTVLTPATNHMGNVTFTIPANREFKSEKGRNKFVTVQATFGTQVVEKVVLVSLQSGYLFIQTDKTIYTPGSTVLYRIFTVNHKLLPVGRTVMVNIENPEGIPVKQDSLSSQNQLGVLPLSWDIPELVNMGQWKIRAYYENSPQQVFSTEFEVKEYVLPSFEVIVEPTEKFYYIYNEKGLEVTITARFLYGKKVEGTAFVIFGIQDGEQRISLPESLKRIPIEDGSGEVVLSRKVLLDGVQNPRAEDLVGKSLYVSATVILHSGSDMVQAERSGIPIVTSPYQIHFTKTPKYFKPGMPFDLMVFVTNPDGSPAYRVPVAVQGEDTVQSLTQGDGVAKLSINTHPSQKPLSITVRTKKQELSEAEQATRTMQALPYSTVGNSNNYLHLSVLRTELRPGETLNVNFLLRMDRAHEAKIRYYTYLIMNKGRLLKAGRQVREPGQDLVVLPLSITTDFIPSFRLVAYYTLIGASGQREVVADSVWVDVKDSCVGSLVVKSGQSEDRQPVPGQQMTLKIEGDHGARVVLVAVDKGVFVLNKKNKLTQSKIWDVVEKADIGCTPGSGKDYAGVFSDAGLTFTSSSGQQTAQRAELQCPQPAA
# Sequence (P01024 672-1663, chain 2 of 2): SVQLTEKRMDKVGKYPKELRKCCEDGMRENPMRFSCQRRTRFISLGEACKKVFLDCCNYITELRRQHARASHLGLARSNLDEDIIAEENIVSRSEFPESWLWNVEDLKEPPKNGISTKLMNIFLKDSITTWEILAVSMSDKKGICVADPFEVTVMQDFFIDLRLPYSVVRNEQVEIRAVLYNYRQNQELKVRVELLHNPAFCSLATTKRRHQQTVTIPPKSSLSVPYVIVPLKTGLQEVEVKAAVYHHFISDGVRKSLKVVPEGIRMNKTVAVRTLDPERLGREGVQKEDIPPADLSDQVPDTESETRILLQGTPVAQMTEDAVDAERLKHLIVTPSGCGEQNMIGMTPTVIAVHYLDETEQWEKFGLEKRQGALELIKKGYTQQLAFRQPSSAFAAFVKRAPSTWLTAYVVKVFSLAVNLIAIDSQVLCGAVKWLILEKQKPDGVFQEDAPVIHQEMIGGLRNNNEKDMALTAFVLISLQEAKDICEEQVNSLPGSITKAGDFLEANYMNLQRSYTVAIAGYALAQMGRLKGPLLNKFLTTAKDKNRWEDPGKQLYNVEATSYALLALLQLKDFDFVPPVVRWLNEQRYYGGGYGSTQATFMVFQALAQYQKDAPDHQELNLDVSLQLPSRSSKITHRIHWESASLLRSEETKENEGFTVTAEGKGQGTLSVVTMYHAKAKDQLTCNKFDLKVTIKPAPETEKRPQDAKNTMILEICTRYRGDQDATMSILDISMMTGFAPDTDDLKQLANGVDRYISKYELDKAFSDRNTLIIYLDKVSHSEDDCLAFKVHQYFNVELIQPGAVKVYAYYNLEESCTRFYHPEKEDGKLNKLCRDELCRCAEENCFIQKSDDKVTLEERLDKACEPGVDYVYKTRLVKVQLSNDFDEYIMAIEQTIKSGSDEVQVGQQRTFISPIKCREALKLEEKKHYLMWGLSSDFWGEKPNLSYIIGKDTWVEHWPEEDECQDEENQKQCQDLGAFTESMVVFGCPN
# test.description: cell-based or functional assay
Catalogue of EC50 of hC3 cleavage values
Give the quantity in nM, number only.

>>> experimental_value("MTSP-1 Q38H/I41A/D60bV/F60eR/Y60gW/ins97aE/F97T/T98G/F99L/C122S/G151N/Q175L/Q192D (enzyme) VVGGTDADEGEWPWQVSLHALGHGHACGASLISPNWLVSAAHCYIDVRGRRWSDPTQWTAFLGLHDQSQRSAPGVQERRLKRIISHPFFNDTEGLDYDIALLELEKPAEYSSMVRPISLPDASHVFPAGKAIWVTGWGHTQYGGTNALILQKGEIRVINQTTCENLLPQLITPRMMCVGFLSGGVDSCDGDSGGPLSSVEADGRIFQAGVVSWGDGCAQRNKPGVYTRLPLFRDWIKENTGV")
7.74
>>> experimental_value("MTSP-1 I41R/Y59F/G60dS/R84H/ins97aE/F97T/T98G/F99L/C122S/Q175L/Q192E/V212I (enzyme) VVGGTDADEGEWPWQVSLHALGQGHRCGASLISPNWLVSAAHCFIDDRSFRYSDPTQWTAFLGLHDQSQRSAPGVQERHLKRIISHPFFNDTEGLDYDIALLELEKPAEYSSMVRPISLPDASHVFPAGKAIWVTGWGHTQYGGTGALILQKGEIRVINQTTCENLLPQLITPRMMCVGFLSGGVDSCEGDSGGPLSSVEADGRIFQAGIVSWGDGCAQRNKPGVYTRLPLFRDWIKENTGV")
143
>>> experimental_value("MTSP-1 Q38H/I41S/D60bT/F60eS/Y60gW/D96Y/ins97aV/F97E/T98G/F99L/C122S/G151H/Q175L/Q192D (enzyme) VVGGTDADEGEWPWQVSLHALGHGHSCGASLISPNWLVSAAHCYIDTRGSRWSDPTQWTAFLGLHDQSQRSAPGVQERRLKRIISHPFFNYEVGLDYDIALLELEKPAEYSSMVRPISLPDASHVFPAGKAIWVTGWGHTQYGGTHALILQKGEIRVINQTTCENLLPQLITPRMMCVGFLSGGVDSCDGDSGGPLSSVEADGRIFQAGVVSWGDGCAQRNKPGVYTRLPLFRDWIKENTGV")
4.62

Prompt line: Entry MTSP-1 Q38G/H40R/I41H/D60bK/F60eT/F97D/F99L/C122S/Q175L/Q192G (enzyme) VVGGTDADEGEWPWQVSLHALGGGRHCGASLISPNWLVSAAHCYIDKRGTRYSDPTQWTAFLGLHDQSQRSAPGVQERRLKRIISHPFFNDDTLDYDIALLELEKPAEYSSMVRPISLPDASHVFPAGKAIWVTGWGHTQYGGTGALILQKGEIRVINQTTCENLLPQLITPRMMCVGFLSGGVDSCGGDSGGPLSSVEADGRIFQAGVVSWGDGCAQRNKPGVYTRLPLFRDWIKENTGV : reported EC50 of hC3 cleavage = ?
Response line: 21.3

Prompt line: Form field: reported EC50 of hC3 cleavage of MTSP-1 I41R/ins97aE/F97T/T98G/F99L/C122S/G151N/Q175L/Q192E (enzyme) VVGGTDADEGEWPWQVSLHALGQGHRCGASLISPNWLVSAAHCYIDDRGFRYSDPTQWTAFLGLHDQSQRSAPGVQERRLKRIISHPFFNDTEGLDYDIALLELEKPAEYSSMVRPISLPDASHVFPAGKAIWVTGWGHTQYGGTNALILQKGEIRVINQTTCENLLPQLITPRMMCVGFLSGGVDSCEGDSGGPLSSVEADGRIFQAGVVSWGDGCAQRNKPGVYTRLPLFRDWIKENTGV
Response line: 311

Each recorded value in this set is attributed to patent US20240018502A1.
